Reference for the values: patent US20090131481A1

Target: ExsA (Pseudomonas aeruginosa, UniProt P26993)
Construct: made in house
Sequence (P26993 1-278): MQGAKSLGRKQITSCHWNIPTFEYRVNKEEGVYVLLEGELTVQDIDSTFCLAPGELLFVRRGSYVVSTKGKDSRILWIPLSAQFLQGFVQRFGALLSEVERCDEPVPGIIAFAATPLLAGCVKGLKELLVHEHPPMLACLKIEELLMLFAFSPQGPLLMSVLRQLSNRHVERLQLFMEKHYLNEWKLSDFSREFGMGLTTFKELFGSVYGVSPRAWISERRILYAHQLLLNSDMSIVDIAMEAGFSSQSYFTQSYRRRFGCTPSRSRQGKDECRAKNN
Experiment: Chemiluminescence-based ExsA-DNA binding assay
Design: species or system P. aeruginosa
Conditions: Table 7, cell-free system; read-out: ExsA EC50
MEASURED QUANTITY: EC50

See these solved cases before continuing.
{"columns": ["STRUCTURE", "MEASURED ON", "EC50"],
 "data": [
  ["O=C(/C=C/c1ccc(F)cc1F)Nc1ccc(-c2nc3ccc([N+](=O)[O-])cc3n2O)cc1", "ExsA (Pseudomonas aeruginosa, UniProt P26993)", "< 10 µM"],
  ["CC(=O)c1ccc(/C=C/C(=O)Nc2ccc(-c3nc4ccc(C(F)(F)F)cc4n3O)cc2)cc1", "ExsA (Pseudomonas aeruginosa, UniProt P26993)", "10 to 25 µM"],
  ["O=C(Nc1ccc(-c2nc3ccc([N+](=O)[O-])cc3n2O)cc1)c1ccc(-n2cncn2)cc1", "ExsA (Pseudomonas aeruginosa, UniProt P26993)", "< 10 µM"],
  ["O=C(/C=C/c1ccc(F)c(F)c1)Nc1ccc(-c2nc3ccc([N+](=O)[O-])cc3n2O)cc1", "ExsA (Pseudomonas aeruginosa, UniProt P26993)", "10 to 25 µM"],
  ["Cc1ccc(/C=C/C(=O)Nc2ccc(-c3nc4ccc([N+](=O)O)cc4n3O)cc2)cc1", "ExsA (Pseudomonas aeruginosa, UniProt P26993)", "< 10 µM"]
]}

# return EC50 for each item in the list
1. O=C(Nc1ccc(-c2nc3ccc([N+](=O)[O-])cc3n2OCP(=O)(O)O)cc1)c1ccc(F)cc1
2. CC(=O)c1ccc(/C=C/C(=O)Nc2ccc(-c3nc4ccc(C(=O)O)cc4n3O)cc2)cc1
3. CC(=O)c1ccc(/C=C/C(=O)Nc2ccc(-c3nc4ccc(F)cc4n3O)cc2)cc1
4. O=C(Nc1ccc(-c2nc3ncc([N+](=O)[O-])cc3n2O)cc1)c1ccc(F)cc1
5. O=C(/C=C/c1ccc(F)cc1)Nc1ccc(-c2nc3cc(F)c([N+](=O)[O-])cc3n2O)cc1
6. O=C(/C=C/c1ccc(F)cc1)Nc1ccc(-c2nc3ccncc3n2O)cc1

Out:
1. > 25 µM
2. > 25 µM
3. 10 to 25 µM
4. 10 to 25 µM
5. 10 to 25 µM
6. > 25 µM

# return EC50 for each item in the list
1. O=C(Nc1ccc(-c2nc3ccc([N+](=O)[O-])cc3n2O)cn1)c1ccc(F)cc1
2. O=C(/C=C/c1ccc(F)cc1)Nc1ccc(-c2nc3ccc([N+](=O)[O-])cc3n2O)cc1
3. O=C(Nc1ccc(-c2nc3ccc([N+](=O)[O-])cc3n2O)cc1)c1ccc(N2CCOCC2)cc1
4. O=C(/C=C/c1ccc(F)cc1)Nc1ccc(-c2nc3ccc(-n4cccn4)cc3n2O)cc1
5. O=C(Nc1ccc(-c2nc3ccc([N+](=O)[O-])cc3n2O)c(F)c1)c1ccc(F)cc1

Out:
1: 10 to 25 µM; 2: < 10 µM; 3: 10 to 25 µM; 4: > 25 µM; 5: 10 to 25 µM

# return EC50 for each item in the list
1. C/C(=C\c1ccccc1)C(=O)Nc1ccc(-c2nc3ccc([N+](=O)[O-])cc3n2O)cc1
2. CC(=O)c1ccc(/C=C/C(=O)Nc2ccc(-c3nc4ccc(C(C)=O)cc4n3O)cc2)cc1

Out:
1: > 25 µM; 2: > 25 µM
